# System: Nucleic Acid
# methodNotes: Compound was evaluated for binding affinity to calf thymus DNA using ethidium displacement assay
# Assay type: nucleic-acid assay
# appliedConditions: Bos taurus
Could you label it fulfilled if measured C50 is 2 µM or higher, and not fulfilled otherwise?

Illustrative cases are given below, each with its answer.
smilesstructure=CN(C)CCCNC(=O)c1cc(NC(=O)c2cc(NC(=O)c3ccc(N(CCCl)CCCl)cc3)cn2C)cn1C classname=fulfilled
smilesstructure=CN(C)CCCNC(=O)c1cc(NC(=O)c2cc(NC(=O)c3ccc(N(CCCl)CCCl)cc3)cn2CCCCCCCCCCCn2cc(NC(=O)c3ccc(N(CCCl)CCCl)cc3)cc2C(=O)Nc2cc(C(=O)NCCCN(C)C)n(C)c2)cn1C classname="not fulfilled"
smilesstructure=CN(C)CCCNC(=O)c1cc(NC(=O)c2cc(NC(=O)c3ccc(N(CCCl)CCCl)cc3)cn2CCCCCCCCCn2cc(NC(=O)c3ccc(N(CCCl)CCCl)cc3)cc2C(=O)Nc2cc(C(=O)NCCCN(C)C)n(C)c2)cn1C classname="not fulfilled"
smilesstructure=CN(C)CCCNC(=O)c1cc(NC(=O)c2cc(NC(=O)c3ccc(N(CCCl)CCCl)cc3)cn2CCCCCCCCCCCCn2cc(NC(=O)c3ccc(N(CCCl)CCCl)cc3)cc2C(=O)Nc2cc(C(=O)NCCCN(C)C)n(C)c2)cn1C classname=fulfilled

Moving on to another molecule below.
Would you say `CN(C)CCCNC(=O)c1cc(NC(=O)c2cc(NC(=O)c3ccc(N(CCCl)CCCl)cc3)cn2CCCCCCCCn2cc(NC(=O)c3ccc(N(CCCl)CCCl)cc3)cc2C(=O)Nc2cc(C(=O)NCCCN(C)C)n(C)c2)cn1C` shows C50 at minimum 2 µM? not fulfilled

====

# Tested on: Nucleic Acid
# methodNotes: Compound was evaluated for binding affinity to poly(dG-dC) polymer using ethidium displacement assay
# Assay type: nucleic-acid assay
// reported Kb per item
Write the answer as a number in M⁻¹, unit excluded.

Example cases with answers are listed next.
smilesstructure=CN(C)CCCNC(=O)c1cc(NC(=O)c2cc(NC(=O)c3ccc(N(CCCl)CCCl)cc3)cn2CCCCCCCCCCCCn2cc(NC(=O)c3ccc(N(CCCl)CCCl)cc3)cc2C(=O)Nc2cc(C(=O)NCCCN(C)C)n(C)c2)cn1C quantitativeresult=9.66e+06
smilesstructure=CN(C)CCCNC(=O)c1cc(NC(=O)c2cc(NC(=O)c3ccc(N(CCCl)CCCl)cc3)cn2CCCCCCCCCCn2cc(NC(=O)c3ccc(N(CCCl)CCCl)cc3)cc2C(=O)Nc2cc(C(=O)NCCCN(C)C)n(C)c2)cn1C quantitativeresult=1.04e+07
smilesstructure=CN(C)CCCNC(=O)c1cc(NC(=O)c2cc(NC(=O)c3ccc(N(CCCl)CCCl)cc3)cn2CCCCCCCCCn2cc(NC(=O)c3ccc(N(CCCl)CCCl)cc3)cc2C(=O)Nc2cc(C(=O)NCCCN(C)C)n(C)c2)cn1C quantitativeresult=1.04e+07

Dear colleague, I am looking for the recorded Kb of the following molecule: `CN(C)CCCNC(=O)c1cc(NC(=O)c2cc(NC(=O)c3ccc(N(CCCl)CCCl)cc3)cn2CCCCCCCCCCCn2cc(NC(=O)c3ccc(N(CCCl)CCCl)cc3)cc2C(=O)Nc2cc(C(=O)NCCCN(C)C)n(C)c2)cn1C` 8.25e+06

// same read-out, input: `CN(C)CCCNC(=O)c1cc(NC(=O)c2cc(NC(=O)c3ccc(N(CCCl)CCCl)cc3)cn2CCCCCCCCn2cc(NC(=O)c3ccc(N(CCCl)CCCl)cc3)cc2C(=O)Nc2cc(C(=O)NCCCN(C)C)n(C)c2)cn1C` 1.25e+07

// same read-out, input: `CN(C)CCCNC(=O)c1cc(NC(=O)c2cc(NC(=O)c3ccc(N(CCCl)CCCl)cc3)cn2C)cn1C` 1.81e+06
